Just for reference, PubChem BioAssay (NCI) is where these values come from.

System: HS 578T breast
ASSAY METHOD TEXT: NCI-60 one-dose screen, 48 h (100 = growth as untreated, 0 = no growth, -100 = all killed)
CONDITIONS USED: 10 µM unless noted
This is part of a sample that, as a whole, favours compounds with a hit. Of some 83,000 tested, about 20% had one in any assay.
Here, each record is paired with measured growth data.
MEASURE NAME: growth (%)

[[record]]
input_smiles = "CCCCn1c(=O)[nH]c(N)c([C@@H]2c3c([nH]c(=O)n(CCCC)c3=O)Oc3ccc4ccccc4c32)c1=O"
measure_name = "growth"
val = 103

[[record]]
input_smiles = "COc1ccccc1NC(=O)N=Nc1c(O)[nH]c2ccccc12"
measure_name = "growth"
val = 87.8

[[record]]
input_smiles = "COC(=O)c1c2c(c(C)[n+]([O-])c1C)C(=O)C(NCc1cccc(OC)c1)=CC2=O"
measure_name = "growth"
val = 82.7

[[record]]
input_smiles = "COc1ccc(NC(=O)c2sc3nc(C)c(C(=O)/C=C/c4ccccc4)cc3c2N)cc1"
measure_name = "growth"
val = 34

[[record]]
input_smiles = "C=C(C)[C@@H]1CC[C@]2(C(=O)N3CCOCC3)CC[C@]3(C)[C@H](CC[C@@H]4[C@@]5(C)C/C(=C/c6ccncc6)C(=O)C(C)(C)[C@@H]5CC[C@]43C)[C@@H]12"
measure_name = "growth"
val = 74.5

[[record]]
input_smiles = "COc1ccc2c(c1)c(-c1nc(-c3c[nH]c4ccncc34)cs1)cn2C"
measure_name = "growth"
val = -48.3

[[record]]
input_smiles = "NC(=O)c1cccc(-n2ccc3cc(NC(=O)c4ccc(N5CCOCC5)c(C(F)(F)F)c4)ccc32)n1"
measure_name = "growth"
val = 14

[[record]]
input_smiles = "O=C(N/N=C/c1ccc(Cl)cc1)c1[nH]c2ccc(Cl)cc2c1-c1ccccc1"
measure_name = "growth"
val = 82

[[record]]
input_smiles = "COc1c(B(O)O)cccc1-c1nc2c(F)cc3[nH]ncc3c2c2c1CCCC2"
measure_name = "growth"
val = 5.7

